For each record, write down the corresponding Ratio.
# TEST METHOD NOTES: Ratio of drug uptake in medulla to cerebellum in anesthetized cynomolgus monkey after 1.5 mins postinjection
# Assay type: ADME, organism-based, Macaca fascicularis
# CONDITION SUMMARY: in vivo, 0.025 h
Numbers only.

O=C(OCC[18F])C1C2CCC(CC1c1ccc(/C=C\I)cc1)N2 (centres undefined) = 1.4
O=C(OCCC[18F])C1C2CCC(CC1c1cccc(/C=C\I)c1)N2 (centres undefined) = 1.3
O=C(OCC[18F])C1C2CCC(CC1c1cccc(/C=C\Br)c1)N2 (centres undefined) = 1.3

// moving on: another record for Ratio
Look up Ratio: O=C(OCCC[18F])C1C2CCC(CC1c1cccc(/C=C\Br)c1)N2 (centres undefined)
0.9
